- measured.on: T1, IFN-αG (human, UniProt P01569 24-189)
- T1 construct: Recombinant, HEK293; also called IFN-α5
- assay.method.text: ProteOn SPR, cell supernatant;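 further: each binding measurement used just a single antigen concentration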
measurement.label: pKd
Scale for pKd: -log10 of concentration given in mol/L; no unit attached.

binder | endpoint.result
IFWM3414 (antibody, IgG1, V domains shown, mAb; IgG1/kappa said of the parent and of selected mAbs; also called IFWB3149) VH: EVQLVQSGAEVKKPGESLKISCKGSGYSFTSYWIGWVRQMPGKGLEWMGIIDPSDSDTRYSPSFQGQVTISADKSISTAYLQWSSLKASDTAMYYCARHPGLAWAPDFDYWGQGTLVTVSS VL: DIQMTQSPSSLSASVGDRVTITCRASQSIRNNYLNWYQQKPGKAPKLLIYAASSLQSGVPSRFSGSGSGTDFTLTISSLQPEDFATYYCQQGYDTPLTFGQGTKVEIK | 10.48
IFWM3385 (antibody, IgG1, V domains shown, mAb; IgG1/kappa said of the parent and of selected mAbs; also called IFWB3120) VH: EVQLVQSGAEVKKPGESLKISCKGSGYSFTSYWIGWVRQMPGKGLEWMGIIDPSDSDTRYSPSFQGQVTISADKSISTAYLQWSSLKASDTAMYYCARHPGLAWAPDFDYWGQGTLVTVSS VL: DIQMTQSPSSLSASVGDRVTITCRASQSIGDFLNWYQQKPGKAPKLLIYFASSLQSGVPSRFSGSGSGTDFTLTISSLQPEDFATYYCQQALDFPLTFGQGTKVEIK | 10.64

API: the following record is the query input.
Return reported pKd; argument: IFWM3388 (antibody, IgG1, V domains shown, mAb; IgG1/kappa said of the parent and of selected mAbs; also called IFWB3123) VH: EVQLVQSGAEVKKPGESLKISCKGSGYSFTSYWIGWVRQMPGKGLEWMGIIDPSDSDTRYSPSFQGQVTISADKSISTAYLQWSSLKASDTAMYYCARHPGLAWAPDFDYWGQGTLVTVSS VL: DIQMTQSPSSLSASVGDRVTITCRASQSIGKSLNWYQQKPGKAPKLLIYFASSLQSGVPSRFSGSGSGTDFTLTISSLQPEDFATYYCQQSYDFPLTFGQGTKVEIK
10.57
